test system: Bacillus subtilis; assay: Growth inhibition of Bacillus subtilis at 300 ug/ml by cup plate method; format: functional, organism-based
Activity calls are given as the source filed them. No cut-off for these calls is given here.
Outcomes: active, inactive

# TEST_SMILES, LABEL
measured = [
    ("O=C1NC(=O)C(=Cc2c(-c3ccccc3)n(CC(=O)c3ccc(Cl)cc3)c3ccccc23)C(=O)N1", "active"),
    ("CCCCn1c(-c2ccccc2)c(C=C2C(=O)NC(=O)NC2=O)c2ccccc21", "active"),
    ("O=C1NC(=O)C(=Cc2c(-c3ccccc3)n(CC(=O)c3ccc(Br)cc3)c3ccccc23)C(=O)N1", "active"),
    ("O=C1NC(=O)C(=Cc2c(-c3ccccc3)n(CC(=O)c3ccccc3)c3ccccc23)C(=O)N1", "inactive"),
    ("C=CCn1c(-c2ccccc2)c(C=C2C(=O)NC(=O)NC2=O)c2ccccc21", "active"),
    ("O=C1NC(=O)C(=Cc2c(-c3ccccc3)n(CC(=O)c3ccc(-c4ccccc4)cc3)c3ccccc23)C(=O)N1", "active"),
    ("CCn1c(-c2ccccc2)c(C=C2C(=O)NC(=O)NC2=O)c2ccccc21", "active"),
    ("CC1(C)S[C@@H]2[C@H](NC(=O)[C@H](N)c3ccccc3)C(=O)N2[C@H]1C(=O)O", "active"),
    ("COc1ccc(C(=O)Cn2c(-c3ccccc3)c(C=C3C(=O)NC(=O)NC3=O)c3ccccc32)cc1", "active"),
]
